target: SFRP-1 (Homo sapiens); experiment: Cell-based assay for in vitro measurement of SFRP-1/SARP2 antagonist activity (U2OS cells co-transfected with 16x TCF-tk-Luciferase reporter, Wnt and hSFRP-1); settings: U2OS, read-out: Fold Induction with SFRP-1, Conc 15 μM; with SFRP-1; fold induction over SFRP-1 control, single dose
EXPERIMENTAL READOUT: fold induction at 15 µM

These solved cases illustrate the format of a correct answer.
Cc1ccc(S(=O)(=O)c2ccc(NC3CCCCC3)cc2)cc1S(=O)(=O)NCCCn1ccnc1
1.7
COc1cccc(S(=O)(=O)c2ccc(C)c(S(=O)(=O)NCCCn3ccnc3)c2)c1
2.6

(P) Cc1ccc(S(=O)(=O)c2ccccc2)c(C)c1S(=O)(=O)NCCc1ccccn1
(Q) Cc1ccc(S(=O)(=O)c2ccccc2)cc1S(=O)(=O)NC1CCN(C(=O)c2ccco2)CC1
Ask: Which value of fold induction at 15 µM is smaller, the one for P or the one for Q ? Use the label to indicate which entry you chose.
Result: P
(P: 0.9, Q: 2.8)

(I) Cc1cc(C)cc(S(=O)(=O)c2ccc(C)c(S(=O)(=O)NCCCn3ccnc3)c2)c1
(II) CCc1ccccc1S(=O)(=O)c1ccc(C)c(S(=O)(=O)NCCc2ccccn2)c1
Ask: Between these two entries, I and II , state which has the higher fold induction at 15 µM. Use the label to indicate which entry you chose.
Result: I
(I: 2.8, II: 1.7)

###

Molecular target: SFRP-1 (Homo sapiens)
Sequence (Q8N474 32-314): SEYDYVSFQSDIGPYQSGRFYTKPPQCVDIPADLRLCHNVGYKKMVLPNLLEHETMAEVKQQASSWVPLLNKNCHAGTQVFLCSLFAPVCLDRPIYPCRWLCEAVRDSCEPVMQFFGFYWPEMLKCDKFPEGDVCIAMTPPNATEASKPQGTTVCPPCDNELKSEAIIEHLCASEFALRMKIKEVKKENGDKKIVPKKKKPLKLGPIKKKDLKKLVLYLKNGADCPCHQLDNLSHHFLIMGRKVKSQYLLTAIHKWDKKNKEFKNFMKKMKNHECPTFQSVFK
Experiment: Cell-based assay for in vitro measurement of SFRP-1/SARP2 antagonist activity (U2OS cells co-transfected with 16x TCF-tk-Luciferase reporter, Wnt and hSFRP-1)
Conditions: U2OS, read-out: Fold Induction with SFRP-1, Conc 15 μM; single dose; luciferase reporter, fold induction over SFRP-1 control; cells with SFRP-1
EXPERIMENTAL READOUT: fold induction at 15 µM

CC(C)c1ccc(S(=O)(=O)c2ccc(F)cc2)cc1S(=O)(=O)NC1CCN(C(=O)OC(C)(C)C)CC1
2.2
O=S(=O)(NC1CCOCC1)c1cc(S(=O)(=O)c2ccccc2)ccc1C(F)(F)F
3.8
CC(C)c1ccc(S(=O)(=O)c2cccc(OC(F)(F)F)c2)cc1S(=O)(=O)NCCc1ccccn1
2.7
CC(C)c1ccc(S(=O)(=O)c2ccc(F)cc2)cc1S(=O)(=O)NC1CCN(C(=O)c2ccc(C#N)cc2)CC1
2.5
CC(C)c1ccc(S(=O)(=O)c2ccc(F)cc2)cc1S(=O)(=O)NCCN1CCCCC1
2.3

(A) CC(C)(C)C(=O)N1CCC(NS(=O)(=O)c2cc(S(=O)(=O)c3ccccc3)ccc2Cl)CC1
(B) O=S(=O)(c1ccccc1)c1ccc(Cl)c(S(=O)(=O)N2CCC(N3CCCC3)CC2)c1
(C) CNc1ccc(S(=O)(=O)c2ccc(C(C)C)c(S(=O)(=O)NCCc3ccccn3)c2)c(C)c1
Ask: Ascending sort, fold induction at 15 µM. Could you list the labels in the order requested?
Result: B, A, C
(B: 2, A: 2.9, C: 4.2)

###

biological target: SFRP-1 (Homo sapiens, UniProt Q8N474); assay: Cell-based assay for in vitro measurement of SFRP-1/SARP2 antagonist activity (U2OS cells co-transfected with 16x TCF-tk-Luciferase reporter, Wnt and hSFRP-1); settings: U2OS, read-out: Fold Induction with SFRP-1, U2OS cells, single dose 10 μM, luciferase reporter, fold induction over SFRP-1 control
EXPERIMENTAL READOUT: fold induction at 10 µM

COc1cccc(OC)c1C(=O)N1CCC(NS(=O)(=O)c2cc(S(=O)(=O)c3ccccc3)ccc2C(F)(F)F)CC1
4.2
O=S(=O)(NCCc1cccnc1)c1cc(S(=O)(=O)c2ccc(O)cc2)ccc1C(F)(F)F
4.5

(1) O=C(c1c(F)cc(F)cc1F)N1CCC(NS(=O)(=O)c2cc(S(=O)(=O)c3ccccc3)ccc2C(F)(F)F)CC1
(2) CC(C)c1ccc(S(=O)(=O)c2ccc(F)cc2)cc1S(=O)(=O)NCC(O)c1ccccn1 (stereo not shown)
Ask: Between these two entries, 1 and 2 , state which has the higher fold induction at 10 µM. Use the label to indicate which entry you chose.
Result: 1

###

Molecular target: SFRP-1 (Homo sapiens)
Sequence (Q8N474 32-314): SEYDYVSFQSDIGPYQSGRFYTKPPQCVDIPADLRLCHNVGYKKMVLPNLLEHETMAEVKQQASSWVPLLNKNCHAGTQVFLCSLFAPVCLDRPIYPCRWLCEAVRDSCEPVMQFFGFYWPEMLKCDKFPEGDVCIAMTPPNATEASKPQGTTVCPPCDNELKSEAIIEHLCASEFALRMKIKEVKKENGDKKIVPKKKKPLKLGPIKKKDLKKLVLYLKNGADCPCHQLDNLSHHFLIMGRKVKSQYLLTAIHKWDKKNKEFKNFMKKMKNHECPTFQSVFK
Test: Cell-based assay for in vitro measurement of SFRP-1/SARP2 antagonist activity (U2OS cells co-transfected with 16x TCF-tk-Luciferase reporter, Wnt and hSFRP-1)
Conditions: U2OS, read-out: Fold Induction with SFRP-1, U2OS cells, single dose 10 μM, luciferase reporter, fold induction over SFRP-1 control
Counter-ions that a name gives are not always drawn.
EXPERIMENTAL READOUT: fold induction at 10 µM

CN(CCNS(=O)(=O)c1cc(S(=O)(=O)c2ccccc2)ccc1C(F)(F)F)C(=O)Nc1ccccc1
3.5
CNCCNS(=O)(=O)c1cc(S(=O)(=O)c2ccccc2)ccc1C(F)(F)F [Example 799, hydrochloride]
2.2

(1) Cc1cc(S(=O)(=O)c2ccccc2)cc(S(=O)(=O)NC2CCN(C(=O)OC(C)(C)C)CC2)c1C
(2) CC[C@H](CO)NS(=O)(=O)c1cc(S(=O)(=O)c2ccccc2)ccc1C(F)(F)F
Ask: Between these two entries, 1 and 2 , state which has the higher fold induction at 10 µM. Use the label to indicate which entry you chose.
Result: 2
(2: 3, 1: 1.2)

###

Target: SFRP-1 (Homo sapiens, UniProt Q8N474)
Sequence (Q8N474 32-314): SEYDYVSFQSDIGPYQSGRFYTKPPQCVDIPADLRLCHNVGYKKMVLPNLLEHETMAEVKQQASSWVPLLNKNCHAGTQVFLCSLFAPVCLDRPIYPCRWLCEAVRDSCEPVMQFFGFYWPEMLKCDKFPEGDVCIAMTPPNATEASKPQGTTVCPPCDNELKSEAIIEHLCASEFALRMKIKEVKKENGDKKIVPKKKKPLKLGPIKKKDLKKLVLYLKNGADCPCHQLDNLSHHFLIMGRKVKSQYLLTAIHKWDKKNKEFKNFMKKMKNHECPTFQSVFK
Experiment: Cell-based assay for in vitro measurement of SFRP-1/SARP2 antagonist activity (U2OS cells co-transfected with 16x TCF-tk-Luciferase reporter, Wnt and hSFRP-1);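 note: U2OS cells co-transfected with a TCF-tk luciferase reporter, a Wnt vector, hSFRP-1 or empty vector and CMV-βgal, luciferase luminescence read in cell lysates alongside βgal activity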
EXPERIMENTAL READOUT: EC50 (nM)

O=C([C@@H]1CSCN1)N1CCC(NS(=O)(=O)c2cc(S(=O)(=O)c3ccccc3)ccc2C(F)(F)F)CC1 [Example 1056]
294

(A) CC(C)NC(=O)CN1CCC(NS(=O)(=O)c2cc(S(=O)(=O)c3ccccc3)ccc2C(F)(F)F)CC1 [Example 1086]
(B) O=S(=O)(NC1CCOCC1)c1cc(S(=O)(=O)c2ccc(F)cc2)ccc1C(F)(F)F [Example 817]
(C) CN(CCNS(=O)(=O)c1cc(S(=O)(=O)c2ccccc2)ccc1C(F)(F)F)C(=O)N1CCN(C(=O)OC(C)(C)C)CC1 [Example 887]
(D) O=C(O)c1ccc(CCNS(=O)(=O)c2cc(S(=O)(=O)c3ccccc3)ccc2C(F)(F)F)cc1 [Example 877]
Ask: Rank by EC50 (largest to smallest). Could you list the labels in the order requested?
Result: C, B, A, D

(1) O=S(=O)(NC1Cc2ccc(O)cc2C1)c1cc(S(=O)(=O)c2ccccc2)ccc1C(F)(F)F (stereo not drawn) [Example 1004]
(2) CC(C)c1ccc(S(=O)(=O)c2ccc(F)cc2)cc1S(=O)(=O)NC1CCN(C(=S)Nc2cccc([N+](=O)[O-])c2)CC1 [Example 699]
(3) CCC(CC)C(=O)N(C)CCNS(=O)(=O)c1cc(S(=O)(=O)c2ccccc2)ccc1C(F)(F)F [Example 864]
(4) CC(C)(C)OC(=O)N1CCC[C@@H](NS(=O)(=O)c2cc(S(=O)(=O)c3ccccc3)ccc2C(F)(F)F)C1 [Example 787]
(5) CN(CCCNS(=O)(=O)c1cc(S(=O)(=O)c2ccccc2)ccc1C(F)(F)F)C(=O)N1CCNCC1 [Example 975]
Ask: Rank by EC50 (largest to smallest). Could you list the labels in the order requested?
Result: 2, 5, 3, 4, 1
(2: 9800 nM, 5: 5700 nM, 3: 1800 nM, 4: 896 nM, 1: 473 nM)

(P) CC(C)c1ccc(S(=O)(=O)c2ccc(F)cc2)cc1S(=O)(=O)NC1CCN(C(=S)Nc2cccc3ccccc23)CC1 [Example 690]
(Q) CC(C)c1ccc(S(=O)(=O)c2ccccc2)cc1S(=O)(=O)NC1CC(C)(C)NC(C)(C)C1 [Example 935]
Ask: Which value of EC50 is smaller, the one for P or the one for Q ? Use the label to indicate which entry you chose.
Result: Q
(Q: 2530 nM, P: 8400 nM)

(1) CN(CCNS(=O)(=O)c1cc(S(=O)(=O)c2ccccc2)ccc1C(F)(F)F)C(=O)Nc1ccccc1 [Example 826]
(2) O=S(=O)(NCC1CCOCC1)c1cc(S(=O)(=O)c2ccccc2)ccc1C(F)(F)F [Example 765]
Ask: Which value of EC50 is smaller, the one for 1 or the one for 2 ? Use the label to indicate which entry you chose.
Result: 2
